Biological target: human Orexin 1 receptor (Homo sapiens)
Construct: stably expressing the full-length human Orexin 1 receptor; expressed in transfected cells; host or cells: CHO-K1 (CHO-K1/hOx1), co-expressing aequorin
Sequence (O43613 1-425): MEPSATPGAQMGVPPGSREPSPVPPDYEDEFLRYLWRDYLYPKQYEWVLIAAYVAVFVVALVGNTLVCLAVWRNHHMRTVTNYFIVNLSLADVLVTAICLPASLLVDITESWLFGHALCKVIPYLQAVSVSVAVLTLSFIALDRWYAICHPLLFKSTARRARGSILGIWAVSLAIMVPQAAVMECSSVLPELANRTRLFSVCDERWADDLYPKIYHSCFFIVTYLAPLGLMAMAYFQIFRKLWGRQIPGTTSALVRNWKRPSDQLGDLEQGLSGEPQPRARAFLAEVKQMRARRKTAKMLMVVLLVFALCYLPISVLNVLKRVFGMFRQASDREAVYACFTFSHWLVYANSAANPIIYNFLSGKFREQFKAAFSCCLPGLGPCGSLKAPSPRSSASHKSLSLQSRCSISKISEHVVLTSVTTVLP
Assay: Assay A: in vitro testing of OX1R potency, OX1R IP1
Type: cell-based
Conditions: selectivity ratio of Assay B and Assay A Kb
Text: Activation of the orexin receptors expressed in cell lines results in an increase in intracellular IP3 concentration. IP1, a downstream metabolite of IP3, accumulates in cells following receptor activation and is stable in the presence of LiCl. Using Homogeneous Time-Resolved Fluorescence technology with Lumi4-Tb cryptate (commercially available from Cisbio Bioassay.) and a suitable fluorescence plate reader. […]
Please respond with 1 when measured OX2R Kb/OX1R Kb is strictly beneath 200, and with -1 in all other cases.

COMPOUND | GROUP
C[C@@H](CNc1ncc(C(F)(F)F)cn1)N(CC(F)F)C(=O)c1cccc(F)c1-c1ncccn1 [Example 3] | -1

Please let me know if C[C@@H](CNc1ncc(C(F)(F)F)cn1)N(CC(F)F)C(=O)c1cc(F)ccc1-c1ncccn1 [Example 4] shows OX2R Kb/OX1R Kb below 200.
1

hey, is OX2R Kb/OX1R Kb for C[C@@H](CNc1ncc(C(F)(F)F)cn1)N(CC(F)F)C(=O)c1cccc(F)c1-n1nccn1 [Example 2] lower than 200 or not?
1

Given C[C@@H](CNc1ncc(C(F)(F)F)cn1)N(CC(F)F)C(=O)c1cc(F)cc(F)c1-n1nccn1 [Example 1] , is recorded OX2R Kb/OX1R Kb strictly lower than 200?
-1

Does the reported OX2R Kb/OX1R Kb of C[C@@H](CNc1ncc(C(F)(F)F)cn1)N(CC(F)F)C(=O)c1c(F)cccc1-c1ncccn1 [Example 5] stay below 200?
-1
